- Measured target: Keap1 (Kelch-like ECH-associated protein 1) (Homo sapiens)
- Sequence (Q14145 321-609): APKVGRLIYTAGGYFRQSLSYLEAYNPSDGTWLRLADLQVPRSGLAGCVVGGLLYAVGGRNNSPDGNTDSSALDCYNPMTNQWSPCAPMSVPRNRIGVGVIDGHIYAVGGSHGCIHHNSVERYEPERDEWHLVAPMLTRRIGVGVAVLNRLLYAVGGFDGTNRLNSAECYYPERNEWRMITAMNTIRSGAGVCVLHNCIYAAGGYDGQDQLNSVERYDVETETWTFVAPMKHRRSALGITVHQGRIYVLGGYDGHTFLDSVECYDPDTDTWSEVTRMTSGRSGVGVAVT
pKd: −log10 of the molar value.
Metric name: pKd

Print Keap1 (Kelch-like ECH-associated protein 1) (Homo sapiens) pKd for O=C(O)COc1cccc(CNC(=O)Nc2nnc(-c3ccco3)o2)c1 [Ligand1] .
< 4.30
